- Target or test system: Epidermal growth factor receptor (Homo sapiens, UniProt P00533)
- Sequence (P00533 whole entry): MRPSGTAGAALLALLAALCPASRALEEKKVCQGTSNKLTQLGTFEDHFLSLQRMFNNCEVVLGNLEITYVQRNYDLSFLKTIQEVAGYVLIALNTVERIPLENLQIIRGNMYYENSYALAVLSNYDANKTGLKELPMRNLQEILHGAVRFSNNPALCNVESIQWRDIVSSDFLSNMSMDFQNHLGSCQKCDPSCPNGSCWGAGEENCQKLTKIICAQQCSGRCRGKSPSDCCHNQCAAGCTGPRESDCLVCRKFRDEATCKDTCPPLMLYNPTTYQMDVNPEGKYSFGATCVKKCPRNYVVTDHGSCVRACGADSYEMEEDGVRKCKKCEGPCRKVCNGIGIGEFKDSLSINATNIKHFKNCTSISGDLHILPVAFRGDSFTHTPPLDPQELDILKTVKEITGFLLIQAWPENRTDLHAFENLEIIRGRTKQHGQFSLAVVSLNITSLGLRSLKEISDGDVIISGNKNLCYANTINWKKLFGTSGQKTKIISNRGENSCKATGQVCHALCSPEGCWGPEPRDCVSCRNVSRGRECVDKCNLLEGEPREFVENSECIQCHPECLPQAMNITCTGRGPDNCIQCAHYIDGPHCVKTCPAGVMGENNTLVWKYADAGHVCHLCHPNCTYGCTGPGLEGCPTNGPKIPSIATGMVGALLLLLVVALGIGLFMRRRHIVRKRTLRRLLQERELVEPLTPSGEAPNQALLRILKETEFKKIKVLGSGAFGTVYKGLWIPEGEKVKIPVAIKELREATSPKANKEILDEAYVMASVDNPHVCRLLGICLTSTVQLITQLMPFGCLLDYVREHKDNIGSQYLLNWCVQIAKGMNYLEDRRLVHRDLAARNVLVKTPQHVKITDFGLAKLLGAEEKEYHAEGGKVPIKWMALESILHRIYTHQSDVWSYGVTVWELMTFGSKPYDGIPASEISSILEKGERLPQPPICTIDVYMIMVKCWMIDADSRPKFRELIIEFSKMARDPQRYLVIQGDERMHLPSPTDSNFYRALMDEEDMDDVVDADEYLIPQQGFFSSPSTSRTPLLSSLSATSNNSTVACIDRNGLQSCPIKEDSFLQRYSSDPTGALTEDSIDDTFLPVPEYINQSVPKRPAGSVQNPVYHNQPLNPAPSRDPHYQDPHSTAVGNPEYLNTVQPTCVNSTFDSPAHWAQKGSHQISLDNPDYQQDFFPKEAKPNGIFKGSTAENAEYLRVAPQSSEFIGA
Property name: IC50

>>> result("Oc1ccccc1-c1nc(NCc2c[nH]cn2)c2ccccc2n1")
"> 50 µM"

----------
- Measurement description: Intrinsic clearance in rat liver microsomes
- Format: ADME, Microsome
Property name: CLint (µL/min/mg)

>>> numeric_result("CC(C)c1ccc(N2C[C@H](CS(C)(=O)=O)[C@H]2C)c2cnc(Nc3ccnc(N4CC[C@@H](O)[C@@](C)(F)C4)n3)cc12")
43

----------
- Measurement description: Intrinsic clearance in human hepatocytes
- Format: ADME, cell-based, Hepatocyte
Property name: CLint

>>> result("CC(C)c1ccc(N2C[C@H](CS(C)(=O)=O)[C@H]2C)c2cnc(Nc3ccnc(N4CC[C@@H](O)[C@@](C)(F)C4)n3)cc12")
"41 µL/min/1e6 cells"

----------
- Measurement description: Intrinsic clearance in human liver microsomes
- Format: ADME, Microsome
Property name: CLint (µL/min/mg)

>>> numeric_result("CC(C)c1ccc(N2C[C@H](CS(C)(=O)=O)[C@H]2C)c2cnc(Nc3ccnc(N4CC[C@@H](O)[C@@](C)(F)C4)n3)cc12")
7.2

----------
- Test system: BaF3
- Measurement description: Antiproliferative activity against mouse BaF3 cells harboring EGFR C797S/T790M/del19 mutant assessed as growth inhibition incubated for 72 hrs by CellTiter-Glo assay
- Assay type: functional, cell-based
- Condition notes: BaF3, 72 h
pIC50: −log10 of the molar value.
Property name: pIC50

>>> numeric_result("COc1cc(N2CCC(N3CCN(C)CC3)CC2)c(C)cc1Nc1ncc(Br)c(Nc2ccc3nccnc3c2P(C)(C)=O)n1")
7.57
>>> numeric_result("CN1CCN(c2ccc(Nc3ncc(Cl)c(Nc4ccccc4P(C)(C)=O)n3)cc2Br)CC1")
7.05
>>> numeric_result("[2H]C([2H])([2H])c1cc(Nc2ncc(Br)c(Nc3ccccc3S(=O)(=O)C3CC3)n2)ccc1N1CCN(C([2H])([2H])[2H])CC1")
7.92

----------
- Measurement description: Oral bioavailability in rat
- Condition notes: in vivo
// values below are reported bioavailability
Property name: bioavailability

>>> result("CC(C)c1cnc(N2CC(CS(C)(=O)=O)C2)c2cnc(Nc3ccnc(N4CC[C@@H](O)[C@@](C)(F)C4)n3)cc12")
"2%"
>>> result("CC(C)c1ccc(N2CC(CS(C)(=O)=O)C2)c2cnc(Nc3ccnc(N4CC[C@@H](O)[C@@](C)(F)C4)n3)cc12")
"85%"
>>> result("CO[C@@H]1CCN(c2nccc(Nc3cc4c(C(C)C)ccc(N5C[C@H](CS(C)(=O)=O)[C@H]5C)c4cn3)n2)C[C@@H]1F")
"48%"
>>> result("CC(C)c1ccc(N2C[C@H](CS(C)(=O)=O)[C@H]2C)c2cnc(Nc3ccnc(N4CC[C@@H](O)[C@@](C)(F)C4)n3)cc12")
"50%"

----------
// values below are reported pIC50
- Target or test system: Epidermal growth factor receptor (Homo sapiens, UniProt P00533, C797S/EX19DEL/T790M)
- Sequence (P00533 whole entry, looked up, stated change not applied): as the sequence (P00533 whole entry) above
- Measurement description: Inhibition of EGFR C797S/T790M/Del19 mutant (unknown origin)
pIC50: −log10 of the molar value.
Property name: pIC50

>>> numeric_result("Oc1ccccc1-c1nc(NCN2CCOCC2)c2ccccc2n1")
5.76
>>> numeric_result("Cn1cnc(Nc2nc(-c3ccccc3O)nc3ccccc23)c1")
8.47
>>> numeric_result("Oc1ccccc1-c1nc(NCc2c[nH]cn2)c2ccccc2n1")
8.32
